tested on: Photobacterium damselae subsp. piscicida (DSM 22834); assay type: cell-based; settings: DSM 22834, 24 h
Ends that are not written are not given here.
REPORTED_PROPERTY: MIC (µM)
Give bare numbers, in µM.

Below are 4 substances. Give each one its MIC.
1. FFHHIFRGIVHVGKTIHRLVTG-NH2 [Piscidin1]
2. LIGSLFRGAKAIFRGARQGWRAHKAVSRYRAGYVRRPVVYYHRVYP-NH2 [Piscidin5]
3. FIHHIFRGIINAGKSIGRFITG-NH2 [Piscidin4]
4. FLGRFFRRTQAILRGARQGWRAHKAVSRYRDRYIPETDNNQEQP-NH2 [Piscidin2]

Data returned:
1. 7.4
2. 3.3
3. 29.1
4. 9.1
